experimental_target: Insulin receptor (Homo sapiens, UniProt P06213); also: in the data inactive means no Kd found up to 30 µM
Sequence (P06213 28-758 limits assumed): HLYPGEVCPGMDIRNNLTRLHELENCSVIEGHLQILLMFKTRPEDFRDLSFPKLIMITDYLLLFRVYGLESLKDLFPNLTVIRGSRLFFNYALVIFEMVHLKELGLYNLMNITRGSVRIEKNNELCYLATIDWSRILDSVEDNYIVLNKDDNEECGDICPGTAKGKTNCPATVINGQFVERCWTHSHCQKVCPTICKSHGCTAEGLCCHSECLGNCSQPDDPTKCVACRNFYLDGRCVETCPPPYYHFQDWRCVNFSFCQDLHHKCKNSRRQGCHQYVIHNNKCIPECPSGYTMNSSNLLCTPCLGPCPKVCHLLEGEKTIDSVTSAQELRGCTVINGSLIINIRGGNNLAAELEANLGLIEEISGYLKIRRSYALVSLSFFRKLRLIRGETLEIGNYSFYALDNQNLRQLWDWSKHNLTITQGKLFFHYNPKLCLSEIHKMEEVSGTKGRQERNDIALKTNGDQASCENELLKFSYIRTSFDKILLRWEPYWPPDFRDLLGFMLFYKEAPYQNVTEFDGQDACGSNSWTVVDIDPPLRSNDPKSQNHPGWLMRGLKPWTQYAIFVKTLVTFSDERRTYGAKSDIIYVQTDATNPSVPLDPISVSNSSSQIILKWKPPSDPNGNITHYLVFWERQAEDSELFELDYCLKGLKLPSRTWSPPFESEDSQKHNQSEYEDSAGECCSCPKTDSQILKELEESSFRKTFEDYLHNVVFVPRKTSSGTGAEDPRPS
Sequence (P06213 763-1382 limits assumed): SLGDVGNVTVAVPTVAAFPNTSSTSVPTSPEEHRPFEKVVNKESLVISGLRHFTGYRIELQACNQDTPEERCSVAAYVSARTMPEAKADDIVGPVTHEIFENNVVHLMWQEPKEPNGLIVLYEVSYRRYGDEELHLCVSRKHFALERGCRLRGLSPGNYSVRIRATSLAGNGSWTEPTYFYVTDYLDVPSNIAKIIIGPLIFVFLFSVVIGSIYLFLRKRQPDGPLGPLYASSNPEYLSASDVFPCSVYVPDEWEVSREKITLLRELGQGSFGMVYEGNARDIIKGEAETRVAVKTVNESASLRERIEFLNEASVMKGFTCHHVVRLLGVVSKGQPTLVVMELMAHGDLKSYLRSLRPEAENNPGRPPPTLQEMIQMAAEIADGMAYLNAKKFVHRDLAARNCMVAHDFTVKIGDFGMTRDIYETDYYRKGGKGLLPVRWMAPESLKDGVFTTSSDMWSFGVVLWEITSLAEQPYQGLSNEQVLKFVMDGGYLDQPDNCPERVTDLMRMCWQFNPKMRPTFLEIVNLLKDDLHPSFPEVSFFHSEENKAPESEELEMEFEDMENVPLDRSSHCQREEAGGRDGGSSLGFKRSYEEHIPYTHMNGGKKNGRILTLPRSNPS
The source made the active and inactive calls.
// allowed return values: t = active, f = inactive

-- ask How was `C[C@H]1CNCCCN1S(=O)(=O)c1cccc2cncc(F)c12` classified in this test?
-- reply f

-- ask Hi, do you know how `Cc1nc2cc(-n3ncc(C(=O)c4cc5ccccc5[nH]4)c3N)ccc2[nH]1` came out in this test?
-- reply f

-- ask Status in this test for `CCOc1cc2ncc(C#N)c(Nc3ccc(F)c(Cl)c3)c2cc1NC(=O)/C=C/CN(C)C` ?
-- reply f

-- ask What is the recorded call for this molecule in the test? `CN1CCN(CCOc2cc(OC3CCOCC3)c3c(Nc4c(Cl)ccc5c4OCO5)ncnc3c2)CC1`
-- reply f

-- ask // param item: `Nc1ncnc2c1c(-c1cccc(OCc3ccccc3)c1)cn2[C@H]1C[C@@H](CN2CCC2)C1` ; yields the recorded call
-- reply t

-- ask Record lookup: outcome of this test for `Cn1ncc(Cl)c1-c1cc(C(=O)N[C@H](CN)Cc2ccc(F)c(F)c2)oc1Cl` ?
-- reply f

-- ask Which outcome was assigned to `COCc1c(-c2ccc(NC(=O)Nc3cc(C(F)(F)F)ccc3F)c(F)c2)c2c(N)ncnn2c1CN1CCOCC1` in this test?
-- reply f

-- ask Which outcome was assigned to `COc1ccc(S(=O)(=O)N(C(C)=O)c2ccccc2/C=C/c2cc[n+]([O-])cc2)cc1` in this test?
-- reply f

-- ask Recorded test call requested for O=c1[nH]ccc2cc(OC3CCNCC3)ccc12 [SAR-407899 FREE BASE]
-- reply f

-- ask Hi, do you know how `COc1c(OCCCN2CCOCC2)ccc2c1N=C(NC(=O)c1cnc(N)nc1)N1CCN=C21` came out in this test?
-- reply f

-- ask What did this assay record as the result for `Cc1csc(-c2nnc(Nc3ccc(Oc4ncccc4-c4ccnc(N)n4)cc3)c3ccccc23)c1` ?
-- reply f

-- ask Which outcome was assigned to `Cc1nc(Nc2n[nH]c3c2CN(C(=O)N[C@H](CN(C)C)c2ccccc2)C3(C)C)c2sccc2n1` in this test?
-- reply f

-- ask State the result this test recorded for `O=C(Nc1c[nH]nc1-c1nc2cc(CN3CCOCC3)ccc2[nH]1)NC1CC1` .
-- reply f

-- ask Tell me the assay call for `CO[C@H]1C[C@@H]2CC[C@@H](C)[C@@](O)(O2)C(=O)C(=O)N2CCCC[C@H]2C(=O)O[C@H]([C@H](C)C[C@@H]2CC[C@@H](OP(C)(C)=O)[C@H](OC)C2)CC(=O)[C@H](C)/C=C(\C)[C@@H](O)[C@@H](OC)C(=O)[C@H](C)C[C@H](C)/C=C/C=C/C=C/1C` please.
-- reply f

-- ask Write down the call the test reported for this molecule. Item: `Cc1cnc(NC(=O)Nc2cc(Br)c(C)cc2OC[C@@H]2CNCCO2)cn1`
-- reply f

###

experimental_target: Mitogen-activated protein kinase kinase kinase 4 (Homo sapiens); also: in the data inactive means no Kd found up to 30 µM
Sequence (Q9Y6R4 whole entry): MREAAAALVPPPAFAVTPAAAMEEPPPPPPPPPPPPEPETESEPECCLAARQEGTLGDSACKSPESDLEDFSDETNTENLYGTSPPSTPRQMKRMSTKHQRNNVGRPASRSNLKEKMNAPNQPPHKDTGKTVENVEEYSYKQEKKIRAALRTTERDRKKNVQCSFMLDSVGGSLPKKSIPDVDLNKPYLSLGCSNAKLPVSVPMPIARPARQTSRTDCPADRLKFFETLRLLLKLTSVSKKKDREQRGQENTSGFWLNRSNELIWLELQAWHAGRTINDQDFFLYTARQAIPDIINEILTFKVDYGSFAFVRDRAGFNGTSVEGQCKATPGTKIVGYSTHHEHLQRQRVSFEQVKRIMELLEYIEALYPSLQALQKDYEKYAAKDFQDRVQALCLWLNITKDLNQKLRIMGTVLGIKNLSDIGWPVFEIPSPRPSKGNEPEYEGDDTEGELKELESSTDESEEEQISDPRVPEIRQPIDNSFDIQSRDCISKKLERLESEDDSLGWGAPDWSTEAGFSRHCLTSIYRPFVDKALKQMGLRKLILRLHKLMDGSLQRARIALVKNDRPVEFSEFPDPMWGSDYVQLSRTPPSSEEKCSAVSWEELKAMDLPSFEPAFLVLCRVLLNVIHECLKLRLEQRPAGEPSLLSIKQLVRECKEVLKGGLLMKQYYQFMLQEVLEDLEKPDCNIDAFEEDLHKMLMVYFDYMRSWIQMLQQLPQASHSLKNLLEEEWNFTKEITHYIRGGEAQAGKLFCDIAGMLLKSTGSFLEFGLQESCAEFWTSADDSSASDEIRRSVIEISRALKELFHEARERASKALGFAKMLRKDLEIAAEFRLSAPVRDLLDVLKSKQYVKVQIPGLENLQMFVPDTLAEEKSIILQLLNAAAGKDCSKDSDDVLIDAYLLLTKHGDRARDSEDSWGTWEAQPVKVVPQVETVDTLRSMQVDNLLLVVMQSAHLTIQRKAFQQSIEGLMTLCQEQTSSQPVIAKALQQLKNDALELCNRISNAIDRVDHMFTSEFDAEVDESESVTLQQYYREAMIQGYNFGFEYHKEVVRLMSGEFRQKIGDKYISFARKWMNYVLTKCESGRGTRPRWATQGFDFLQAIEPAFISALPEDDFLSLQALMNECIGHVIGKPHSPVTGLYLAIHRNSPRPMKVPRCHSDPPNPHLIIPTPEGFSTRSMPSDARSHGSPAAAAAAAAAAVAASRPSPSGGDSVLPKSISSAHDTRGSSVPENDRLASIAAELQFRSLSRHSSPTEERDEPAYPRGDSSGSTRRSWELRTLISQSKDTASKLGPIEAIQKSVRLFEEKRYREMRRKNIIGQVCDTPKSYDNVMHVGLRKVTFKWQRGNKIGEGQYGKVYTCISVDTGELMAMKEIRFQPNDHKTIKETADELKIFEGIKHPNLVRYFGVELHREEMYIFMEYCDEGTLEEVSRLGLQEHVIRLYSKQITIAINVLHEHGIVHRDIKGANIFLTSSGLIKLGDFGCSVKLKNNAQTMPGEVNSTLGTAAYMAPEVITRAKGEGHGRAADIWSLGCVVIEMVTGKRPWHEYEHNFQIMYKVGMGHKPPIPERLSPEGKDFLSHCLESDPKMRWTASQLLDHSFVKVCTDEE
Activity calls are given as the source filed them.
Please answer using one outcome listed in YES (active), NO (inactive)

-- ask Status in this test for `Cn1cnc2c(F)c(Nc3ccc(Br)cc3F)c(C(=O)NOCCO)cc21` ?
-- reply NO

-- ask Field: outcome | Entry: `CCn1cc(-c2ccnc3[nH]c(-c4cccc(CN(C)C)c4)cc23)c(-c2ccc(NC(=O)N(C)C)cc2)n1`
-- reply YES

-- ask Tell me the recorded outcome of this test for `CC(=O)NCC(=O)N1[C@@H]2CC[C@H]1c1ccc(Nc3ncc(C(F)(F)F)c(NC4CCC4)n3)cc12` .
-- reply NO

-- ask Outcome? `Cn1cc(-c2cnn3c(N)c(Br)c([C@@H]4CCCNC4)nc23)cn1`
-- reply NO
